test: inhibitors of TNFa-induced NFkB p65 translocation, primary screen, imaging, HUVEC, MLSMR starter and 10KST1 sets (AID 438); details: HUVEC TNFa-induced p65 nuclear translocation; at 2 µM, active compounds read high, 0% TNFa-plus-vehicle, 100% no-TNFa wells;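 also: compound added about 3h40 before a 20 min TNFalpha stimulation; signal is the nuclear over cytoplasmic p65 intensity ratio per well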
reported-endpoint: inhibition (%)
A number alone suffices; assume %.

Answered examples (3):
• CCOc1ccc(NS(=O)(=O)c2cc(Cl)ccc2OC)cc1 = -4.2
• O=C1c2ccccc2C(=O)N1Cc1nc2ccccc2c(=O)n1CCN1CCOCC1 = -10.3
• Cc1cccc2cc(CN(Cc3nnnn3Cc3ccco3)C3CCCC3)c3nnnn3c12 = -2.8

## Input Which inhibition value is on record for COc1ccc(C2C(C#N)=C(C)NC3=C2C(=O)CC(C)(C)C3)c(OC)c1 (stereo unspecified) ?
## Output -8

## Input Return reported inhibition; argument: O=C(Nc1cc(C(F)(F)F)ccc1Cl)C1CCN(c2nnc(-n3cccc3)s2)CC1
## Output -2.9

## Input # inhibition lookup, item O=C(Nc1ccc2c(c1)OCO2)C(c1ccccc1)N1CCC2(CC1)OCCO2 (stereo unspecified)
## Output 2

## Input For the compound O=C1CCC(c2ccccc2)N1C(=O)c1cccnc1 (stereo unspecified) , what inhibition is on record?
## Output -17.3

## Input Form field: reported inhibition of Cn1c(=O)c2c(nc(N3CCN(c4ccccc4)CC3)n2CCCc2ccccc2)n(C)c1=O
## Output 1.4

###

experiment: blockers of RIG-like receptor reporter activation – cell-based, Sendai virus stimulus, luciferase, 10K MLSCN set, TLR/RLR signaling modifier project, primary screen (AID 602276); conditions: HEK293 RL24 IRF3 luciferase reporter, at 10 µM, active compounds read high;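 also: firefly luciferase from ISG56 promoter only with Renilla not read in this screen; 0% = Sendai virus plus DMSO and 100% = medium plus DMSO without virus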
Each item that follows carries a reported inhibition.
Write the answer as a number in %, unit excluded.

• O=C(CSc1nc2ccccc2o1)NC(=O)NCc1ccco1 = -2.31

## Input Could you tell me which inhibition is on file for CC(C)COc1ccc(C(=O)OCCN2CCOCC2)cc1 ?
## Output -17.8

## Input Bench note: what inhibition did CC1(C)Cc2c(sc3c2c(=N)n(Cc2ccco2)c(=O)n3Cc2ccccc2)CO1 show?
## Output 13.1

## Input Requested field: inhibition. Item: CC1=C(C(=O)N2CCOCC2)C(c2ccccc2F)C2=C(CCCC2=O)N1 (stereo unspecified)
## Output 3.26

## Input Would you kindly share the measured inhibition for COc1ccc(S(=O)(=O)Cc2ccc(C(=O)N3CCN(c4ccccc4)CC3)o2)cc1 ?
## Output -7.36

## Input Consider the compound shown here: Cn1nc(C(=O)Nc2cccc(C(F)(F)F)c2)ccc1=O What is its recorded inhibition?
## Output 5.35

###

assay: blockers of RIG-like receptor reporter activation – cell-based, Sendai virus stimulus, luciferase, 10K MLSCN set, TLR/RLR signaling modifier project, primary screen (AID 602276); details: HEK293 RL24 IRF3 luciferase reporter, at 10 µM, active compounds read high;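 also: firefly luciferase from ISG56 promoter only with Renilla not read in this screen; 0% = Sendai virus plus DMSO and 100% = medium plus DMSO without virus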
reported-endpoint: inhibition (%)
Provide only the numeric value, understood in %.

Examples with answers:
* Cc1ccc(Nc2nc(Oc3ccc(=O)[nH]n3)nc(N(C)C)n2)cc1 | 8.86
* COc1ccccc1NC(=O)CSc1nnc(Cn2nnc(-c3ccccc3)n2)n1-c1ccccc1 | 19.9
* Cc1nc2c(-c3ccccc3)c(C)[nH]n2c(=O)c1Cl | -11.4

## Input I have this compound here, O=C1CSC(c2cn(-c3ccccc3)nc2-c2ccccc2)N1Cc1ccco1 (stereo not drawn) , and I need its recorded inhibition.
## Output -1.04

## Input Which inhibition value is on record for N#Cc1c(N2C(=O)C3C4C=CC(C4)C3C2=O)sc2c1CCC2 (stereo not drawn) ?
## Output 14.5

## Input Fill blank: measured inhibition of the compound Cn1cnnc1Sc1nc2c(c(=O)n(C)c(=O)n2C)n1Cc1ccccc1Cl is ____.
## Output 15.5

## Input Could you tell me which inhibition is on file for Cc1csc(OCc2ccc(C#N)cc2)n1 ?
## Output 7.71

## Input Which inhibition reading was recorded for the compound COCc1nnc(NC(=O)c2ccc(NC(C)=O)cc2)s1 ?
## Output -5.57

## Input Given the compound CC(C)(C)c1ccc(OCC(=O)O)cc1 , what is its reported inhibition?
## Output 7.32

## Input Which measured inhibition value corresponds to COc1ccc(-n2ncc3c(NCc4cccs4)ncnc32)cc1 ?
## Output -24.5

## Input Entry N#Cc1c(/N=C/c2ccco2)sc2c1CCC2 : reported inhibition = ?
## Output -16.4

## Input For the compound COc1ccc(C2(C(=O)Nc3c(C)n(C)n(-c4ccccc4)c3=O)CCCC2)cc1OC , what inhibition is on record?
## Output 13.1

## Input Bench note: what inhibition did CCOCCCNC(=O)c1c[nH]c2ccc(S(=O)(=O)Nc3cccc(OC)c3)cc2c1=O show?
## Output 0.375

## Input Consider the compound shown here: CC1CCCCN1CCNC(=O)C1CCN(S(=O)(=O)c2cccc3cccnc23)CC1 (stereo not drawn) What is its recorded inhibition?
## Output 6.15

## Input Record request: inhibition value, item CC1(C)CC(=O)C=C(Nc2ccc(F)cc2)C1
## Output -2.98

## Input What inhibition value was documented for this compound, O=S(=O)(NCc1ccccn1)c1ccc2c(c1)OCCO2 ?
## Output 3.8

## Input Name the recorded inhibition for Cc1ccc(Nc2nc(N)nc(CN3CCN(Cc4ccc5c(c4)OCO5)CC3)n2)cc1 .
## Output 1.9

## Input // query inhibition value for entry CN(C)S(=O)(=O)Nc1ccccc1C(N)=O
## Output 15.1

## Input Entry under review: Cc1cc(C(=O)COC(=O)c2n[nH]c3ccccc23)c(C)n1C . Reported inhibition?
## Output 5.43

## Input Entry COc1ccc(CN(C(=O)CN2C(=O)COc3ccccc32)C2CCCC2)c(OC)c1 has what inhibition?
## Output 21.9

## Input For O=C(Cc1nn[nH]n1)NCCC1=CCCCC1 , what is its reported inhibition?
## Output 5.61

## Input // query inhibition value for entry CCOC(=O)c1c(C)oc2ccc(NS(=O)(=O)c3ccc4c5c(cccc35)C(=O)N4)cc12
## Output 21.2

## Input // returns reported inhibition for input Cc1nn(-c2ccccc2)c2c1C(c1c(C)[nH]c(C#N)c1C)C(C#N)=C(N)O2 (stereo not drawn)
## Output 8.98
